assay: qHTS assay for small molecule agonists of the p53 signaling pathway - cell viability (AID 651633); conditions: p53RE-bla HCT-116 viability, ATP luminescence, 16 h; series mostly up to 83.3 µM; further: nearly all actives have a fitted effect of over 30% in size
Inconclusive results are not listed. Active and inactive are the calls of the source. The call rests on the fitted dose curve.
The reply should name one outcome from 1 (yes) (active), 0 (no) (inactive)

Examples with answers:
In [3]: df
Out[3]:
                                   compound  qualitative_label
0                        CN(C)c1ccc(N=O)cc1            1 (yes)
1                   C=CC(=O)NC(C)(C)CC(C)=O             0 (no)
2                             ClCc1ccccc1Cl             0 (no)
3  O=P(OCC(Br)CBr)(OCC(Br)CBr)OCC(Br)CBr (centres undefined)             0 (no)
4                          CCCCCCCCCCCCCCCl             0 (no)
5  CC(=O)OC(c1ccccc1)C(Cl)(Cl)Cl (centres undefined)             0 (no)

Exercise: Assay outcome for `O=C(O)c1cc(I)cc(I)c1I` : what was it?
Solution: 0 (no)

Exercise: Assay outcome for COc1ccc(C(O)(c2cncnc2)C2CC2)cc1 (centres undefined) : what was it?
Solution: 0 (no)

Exercise: Assay outcome for COc1cc(CC(C)N)c(OC)cc1Br (centres undefined) : what was it?
Solution: 0 (no)

Exercise: Assay outcome for `CCOP(=S)(S)OCC` : what was it?
Solution: 0 (no)

Exercise: Assay outcome for `CCCN(CCC)c1c([N+](=O)[O-])cc(C(C)C)cc1[N+](=O)[O-]` : what was it?
Solution: 0 (no)

Exercise: Assay outcome for `Clc1ccccc1` : what was it?
Solution: 0 (no)

----------
assay: A CellTox Green Cytotoxicity Assay to monitor cytotoxicity in HepG2 cells - 40 hour (AID 1224879); conditions: CellTox Green fluorescence; series mostly up to 76.8 µM; further: nearly all actives have a fitted effect of over 40% in size
Results filed as inconclusive are left out. Calls of active or inactive are those of the source. The call rests on the fitted dose curve; in most records, active means well fitted activation curve with a large enough effect in the repeat runs; inconclusive means weak or mixed curves; inactive means flat fitted curve, though single readings scatter.
The reply should name one outcome from active, inactive

Examples with answers:
In [3]: df
Out[3]:
                                   molecule  qualitative_label
0            COC(=O)C1(O)c2ccccc2-c2ccccc21           inactive
1                      CCC[N+](CCC)(CCC)CCC           inactive
2                   C=CC(=O)NC(C)(C)CC(C)=O           inactive
3           CCC(C)(C)c1ccc(O)c(C(C)(C)CC)c1             active
4  CCC1(C2=NCCN2)Cc2ccccc2O1 (configuration not stated)           inactive

Exercise: Assay outcome for `CCC(C)(C)O` : what was it?
Solution: inactive

Exercise: Assay outcome for `CON(C)C(=O)Nc1ccc(Cl)cc1` : what was it?
Solution: inactive

Exercise: Assay outcome for CC[N+]1(C)CCCC(OC(=O)C(O)(c2ccccc2)c2ccccc2)C1 (configuration not stated) : what was it?
Solution: inactive

Exercise: Assay outcome for `Clc1ccc(Cl)c(Cl)c1` : what was it?
Solution: inactive

Exercise: Assay outcome for `CCSCc1ccccc1OC(=O)NC` : what was it?
Solution: inactive

Exercise: Assay outcome for `CCCN(CCOc1c(Cl)cc(Cl)cc1Cl)C(=O)n1ccnc1` : what was it?
Solution: active

Exercise: Assay outcome for CC(Cc1ccccc1)NCc1ccccc1Cl (configuration not stated) : what was it?
Solution: inactive

Exercise: Assay outcome for `OC[P+](CO)(CO)CO` : what was it?
Solution: inactive

Exercise: Assay outcome for `C=CCSSCC=C` : what was it?
Solution: inactive

Exercise: Assay outcome for COP(=O)(OC)OC(Br)C(Cl)(Cl)Br (configuration not stated) : what was it?
Solution: inactive

Exercise: Assay outcome for `O=C(O)c1cc(Cl)ccc1Cl` : what was it?
Solution: inactive

Exercise: Assay outcome for `C1CS1` : what was it?
Solution: inactive

Exercise: Assay outcome for `Cc1ccccc1` : what was it?
Solution: inactive

Exercise: Assay outcome for `O=C(O)C(Cl)(Cl)Br` : what was it?
Solution: inactive

Exercise: Assay outcome for `C1CCNCC1` : what was it?
Solution: inactive

Exercise: Assay outcome for `CCOP(=O)(O)C(N)=O` : what was it?
Solution: inactive

Exercise: Assay outcome for `C[C@H](N)[C@H](O)c1ccc(O)c(O)c1` : what was it?
Solution: active

Exercise: Assay outcome for `CC(C)[C@@H](C(=O)O[C@@H](C#N)c1cccc(Oc2ccccc2)c1)c1ccc(Cl)cc1` : what was it?
Solution: inactive

----------
experiment: qHTS assay to identify small molecule HDAC inhibitors (AID 1259364); conditions: HCT-116 HDAC-Glo I/II luminescence, 2 h; series mostly up to 92.4 µM;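 further: wild-type HCT-116 cells with endogenous class I/II HDAC activity; top concentration of the series differs between compounds; nearly all actives have a fitted effect of over 45% in size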
Results filed as inconclusive are left out. The source made the active and inactive calls. Calls come from the whole dose curve; as a rule, active = well fitted inhibition curve with a large enough effect in the repeat runs; inconclusive = weak or mixed curves; inactive = flat fitted curve, though single readings scatter.
The reply should name one outcome from active, inactive

Examples with answers:
                                   compound  qualitative_label
0                        CN(C)c1ccc(N=O)cc1           inactive
1                                  NC(=O)CF           inactive
2   C[Si](Cn1cncn1)(c1ccc(F)cc1)c1ccc(F)cc1           inactive
3  COc1cc(CC(C)N)c(OC)cc1Br (centres undefined)           inactive
4  O=C1CC[C@@]2(O)[C@H]3Cc4ccc(O)c5c4[C@@]2(CCN3CC2CC2)[C@H]1O5           inactive

Exercise: Assay outcome for `COc1ccc2c(c1OC)C(=O)O[C@H]2[C@@H]1c2cc3c(cc2CCN1C)OCO3` : what was it?
Solution: inactive

Exercise: Assay outcome for `CCOC(C(=O)OCCN(C)C)(c1ccccc1)c1ccccc1` : what was it?
Solution: inactive

----------
experiment: qHTS assay for small molecules that induce genotoxicity in human embryonic kidney cells expressing luciferase-tagged ATAD5 (AID 651632); conditions: HEK293T ATAD5-luciferase induction, 16 h; series mostly up to 83.3 µM; further: nearly all actives have a fitted effect of over 15% in size
Inconclusive results are not listed. The source made the active and inactive calls. The call rests on the fitted dose curve; in most records, active means well fitted activation curve with a large enough effect in the repeat runs; inconclusive means weak or mixed curves; inactive means no such curve, though single readings can be large or run the other way.
endpoint name: activation

Worked examples, 4 molecules total:
>>> print(df.to_string())
                                   molecule    result
0                           Cc1ccc(N)c(C)c1  inactive
1                        COc1ccccc1N1CCNCC1  inactive
2  CC(C)[C@@H](C(=O)O[C@@H](C#N)c1cccc(Oc2ccccc2)c1)c1ccc(Cl)cc1  inactive
3  COC1CC(=C(c2cccs2)c2cccs2)C[N+](C)(C)C1 (configuration not stated)  inactive

Respectfully, I request activation for each entry included below.
1. COCc1cnc(C2=NC(C)(C(C)C)C(=O)N2)c(C(=O)O)c1 (configuration not stated)
2. Cc1nc(N(C)C)nc(OC(=O)N(C)C)c1C
3. Cc1cccc(C)c1NC1=NCCCS1

Solution:
inactive
inactive
inactive

----------
target: Cytochrome P450 2D6 (Homo sapiens) (UniProt P10635); assay: Cytochrome P450 Family 2 Subfamily D Member 6 (CYP2D6) small molecule antagonists: luciferase reporter qHTS assay (AID 1671196); conditions: P450-Glo CYP2D6 enzyme assay, luciferin luminescence, 1 h; series mostly up to 115 µM; further: nearly all actives have a fitted effect of over 50% in size; further: potency means the concentration at half of the fitted maximal effect
Sequence (P10635 whole entry, looked up): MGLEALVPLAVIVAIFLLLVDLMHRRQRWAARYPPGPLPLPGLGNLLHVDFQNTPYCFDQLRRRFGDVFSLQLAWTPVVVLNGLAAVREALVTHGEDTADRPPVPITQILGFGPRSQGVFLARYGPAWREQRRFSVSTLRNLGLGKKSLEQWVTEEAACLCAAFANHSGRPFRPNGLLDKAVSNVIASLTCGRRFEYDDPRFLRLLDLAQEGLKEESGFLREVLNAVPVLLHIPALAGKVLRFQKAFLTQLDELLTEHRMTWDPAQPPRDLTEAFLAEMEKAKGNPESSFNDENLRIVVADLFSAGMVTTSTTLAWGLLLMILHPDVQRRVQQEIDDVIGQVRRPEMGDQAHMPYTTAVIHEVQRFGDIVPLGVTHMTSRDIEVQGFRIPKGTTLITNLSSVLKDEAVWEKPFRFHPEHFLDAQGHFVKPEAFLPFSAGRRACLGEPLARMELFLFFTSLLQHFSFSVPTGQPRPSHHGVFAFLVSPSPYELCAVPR
Records with an inconclusive call do not appear. The source made the active and inactive calls. Calls follow the shape of the dose curve; as a rule, active = well fitted inhibition curve with a large enough effect in the repeat runs; inconclusive = weak or mixed curves; inactive = no such curve, though single readings can be large or run the other way.
endpoint name: Potency

>>> print(df.to_string())
                                   compound  endpoint_name            result
0                      CN(C1CCCCC1)C1CCCCC1        Potency  3.17 µM (active)
1                                SCc1ccccc1        Potency          inactive
2                         CCOP(=O)(O)C(N)=O        Potency          inactive
3                OCC1CO1 (stereo not given)        Potency          inactive
4  O=C(N/N=C/c1ccc([N+](=O)[O-])o1)c1cc([N+](=O)[O-])cc([N+](=O)[O-])c1O        Potency          inactive

Respectfully, I request Potency for each entry included below.
1. CCC1(C2=NCCN2)Cc2ccccc2O1 (stereo not given)
2. C=C(C)C(=O)OCCCCOC(=O)C(=C)C
3. O=S(=O)(c1ccccc1)c1ccccc1
4. C1CCNCC1
5. CCCCCCCCCCCCN(C)C
6. O=S(=O)(Cl)Cl
7. CCCC[N+](CCCC)(CCCC)CCCC
8. O=C1c2ccccc2C(=O)N1SC(Cl)(Cl)Cl

Solution:
15.5 µM (active)
inactive
inactive
inactive
inactive
inactive
0.0089 µM (active)
inactive

Respectfully, I request Potency for each entry included below.
1. CN(C)C(=O)Nc1cccc(OC(=O)NC(C)(C)C)c1
2. CCC1(CC)C(=O)NC(=O)NC1=O

Solution:
1. inactive
2. inactive
